systemUnderTest: KRAS G12V (Homo sapiens (Human), UniProt P01116+P62937, G12V)
Sequence (P01116-2 other isoform, or with tags, fused parts or gaps G12V): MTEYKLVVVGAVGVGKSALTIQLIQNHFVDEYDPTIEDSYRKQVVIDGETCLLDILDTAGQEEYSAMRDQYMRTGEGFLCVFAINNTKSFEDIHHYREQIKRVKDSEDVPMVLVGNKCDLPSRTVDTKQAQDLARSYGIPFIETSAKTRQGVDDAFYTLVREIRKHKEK
Sequence (P62937 whole entry): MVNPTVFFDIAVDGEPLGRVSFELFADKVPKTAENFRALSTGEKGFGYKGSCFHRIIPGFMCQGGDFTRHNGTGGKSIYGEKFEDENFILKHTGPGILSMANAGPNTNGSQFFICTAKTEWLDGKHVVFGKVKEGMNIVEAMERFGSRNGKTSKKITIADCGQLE
assayOverview: Ras-Raf (BRAF RBD) disruption / FRET / MOA assay, KRAS G12V
Type: biochemical
runConditions: read-out: IC50* KRAS G12V FRET data
pIC50: −log10 of the molar value.
readoutLabel: pIC50

Kindly indicate its recorded pIC50. Item: C=CC(=O)N1CC[C@@H](C(=O)N(C)[C@H](C(=O)N[C@H]2Cc3cccc(c3)-c3ccc4c(c3)c(c(-c3cccnc3[C@H](C)OC)n4CC)CC(C)(C)COC(=O)[C@@H]3CCCN(N3)C2=O)C(C)C)C1 (atropisomer, axis not shown) [Example A488]
5.00 to 6.00

Kindly indicate its recorded pIC50. Item: C=CC(=O)N1CCOC2(CCN(C(=O)N(C)[C@H](C(=O)N[C@H]3Cc4cc(C(F)F)cc(n4)-c4ccc5c(c4)c(c(-c4cccnc4[C@H](C)OC)n5CC(F)(F)F)CC(C)(C)COC(=O)[C@@H]4CCCN(N4)C3=O)C(C)C)CC2)C1 (atropisomer, axis not shown) [Example A541]
5.00 to 6.00

Kindly indicate its recorded pIC50. Item: CCn1c(-c2cccnc2[C@H](C)OC)c2c3cc(ccc31)-c1cccc(c1)C[C@H](NC(=O)[C@H](C(C)C)N1CC[C@@]3(CCN(C(=O)C#CC(C)(C)N(C)C)C3)C1=O)C(=O)N1CCC[C@H](N1)C(=O)OCC(C)(C)C2 (atropisomer, axis not shown) [Example A414]
5.00 to 6.00

Kindly indicate its recorded pIC50. Item: C=CC(=O)N1CC(OCC(C(=O)N[C@H]2Cc3cc(cc(C(F)F)c3)-c3ccc4c(c3)c(c(-c3cccnc3[C@H](C)OC)n4CC(F)(F)F)CC(C)(C)COC(=O)[C@@H]3CCCN(N3)C2=O)C(C)C)C1 (mixture of isomers) [Example A428]
< 5.00

Kindly indicate its recorded pIC50. Item: CO[C@@H](C)c1ncccc1-c1c2c3cc(ccc3n1CC(F)(F)F)-c1nc(nn1C)C[C@H](NC(=O)[C@H](C(C)C)N(C)C(=O)C1(F)CCN(C(=O)C#CC(C)(C)N(C)C)CC1)C(=O)N1CCC[C@H](N1)C(=O)OCC(C)(C)C2 (atropisomer, axis not shown) [Example A577]
6.00 to 7.00

Kindly indicate its recorded pIC50. Item: C=CC(=O)N1CC[C@H](C(=O)N(C)[C@H](C(=O)N[C@H]2Cc3ncc(n3C)-c3ccc4c(c3)c(c(-c3cccnc3[C@H](C)OC)n4CC)CC(C)(C)COC(=O)[C@@H]3CCCN(N3)C2=O)C(C)C)C1 (atropisomer, axis not shown) [Example A276]
< 5.00

Kindly indicate its recorded pIC50. Item: CO[C@@H](C)c1ncccc1-c1c2c3cc(ccc3n1C)-c1cccc(c1)C[C@H](NC(=O)[C@H](C(C)C)N(C)C(=O)[C@H]1CCN(C(=O)C#CCN3CCOCC3)C1)C(=O)N1CCC[C@H](N1)C(=O)OCC(C)(C)C2 (atropisomer, axis not shown) [Example A192]
< 5.00

---

Exercise: state measured IC50 for each of the molecules provided.
systemUnderTest: K-Ras G12C (Homo sapiens (Human), UniProt P01116+P62937, G12C)
Sequence (P01116-2 other isoform, or with tags, fused parts or gaps G12C): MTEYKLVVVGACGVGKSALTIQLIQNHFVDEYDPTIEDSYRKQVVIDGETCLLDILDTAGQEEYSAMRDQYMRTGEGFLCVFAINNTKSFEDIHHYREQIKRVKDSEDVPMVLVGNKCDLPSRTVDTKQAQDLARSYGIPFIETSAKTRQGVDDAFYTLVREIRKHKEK
Sequence (P62937 whole entry): as the sequence (P62937 whole entry) above
assayOverview: Ras-Raf (BRAF RBD) disruption / FRET / MOA assay, KRAS G12C
Type: biochemical
runConditions: KRAS G12C; Ras-Raf disruption/FRET/MOA assay; read-out: IC50* KRAS G12C FRET data

Kindly indicate its recorded IC50. Item: C=CC(=O)N1CC[C@H](C(=O)N(C)[C@H](C(=O)N[C@H]2Cc3csc(n3)-c3ccc4c(c3)c(c(-c3cc(N5CCN(C)CC5)cnc3[C@H](C)OC)n4CC(F)(F)F)CC(C)(C)COC(=O)[C@@H]3CCCN(N3)C2=O)C(C)C)C1
10 to 100 nM

Kindly indicate its recorded IC50. Item: CCn1c(-c2cccnc2[C@H](C)OC)c2c3cc(ccc31)-c1csc(n1)C[C@H](NC(=O)[C@H](C(C)C)N(C)C(=O)N(C)C1CN(C(=O)/C=C/[C@H]3CCCN3C)C1)C(=O)N1CCC[C@H](N1)C(=O)OCC(C)(C)C2 (atropisomer, axis not shown)
100 to 1000 nM

Kindly indicate its recorded IC50. Item: C=CC(=O)N1CCC2(CCN(C(=O)N(C)[C@H](C(=O)N[C@H]3Cc4nc(cs4)-c4ccc5c(c4)c(c(-c4cccnc4[C@H](C)OC)n5CC)CC(C)(C)COC(=O)[C@@H]4CCCN(N4)C3=O)C(C)C)CC2)C1 (atropisomer, axis not shown)
10 to 100 nM

Kindly indicate its recorded IC50. Item: C=CC(=O)N1CCN(C(=O)N(C)[C@H](C(=O)N[C@H]2Cc3nc(cs3)-c3ccc4c(c3)c(c(-c3cccnc3[C@H](C)OC)n4CC)CC(C)(C)COC(=O)[C@@H]3CCCN(N3)C2=O)C(C)C)CC12CC2 (atropisomer, axis not shown)
10 to 100 nM

Kindly indicate its recorded IC50. Item: C=CC(=O)N1CC[C@H](C(=O)Nc2ccccc2C(=O)N[C@H]2Cc3cc(O)cc(c3)-c3ccc4c(c3)c(c(-c3cnccc3COC)n4CC)CC(C)(C)COC(=O)[C@@H]3CCCN(N3)C2=O)C1
100 to 1000 nM

Kindly indicate its recorded IC50. Item: C=CC(=O)N1CCC(F)(C(=O)N(C)[C@H](C(=O)N[C@H]2Cc3cccc(c3)-c3ccc4c(c3)c(c(-c3cccnc3[C@H](C)OC)n4CC)CC(C)(C)COC(=O)[C@@H]3CCCN(N3)C2=O)C(C)C)CC1 (atropisomer, axis not shown)
10 to 100 nM

Kindly indicate its recorded IC50. Item: C=CC(=O)N1CCCN(C(=O)N(C)[C@H](C(=O)N[C@H]2Cc3cc(O)cc(c3)-c3ccc4c(c3)c(c(-c3cccnc3[C@H](C)OC)n4CC)CC(C)(C)COC(=O)[C@@H]3CCCN(N3)C2=O)C(C)C)CC1 (atropisomer, axis not shown)
10 to 100 nM

Kindly indicate its recorded IC50. Item: C=CC(=O)N1CCOC2(CCN(C(=O)N(C)[C@H](C(=O)N[C@H]3C[C@H]4CN(CCO4)c4ccc5c(c4)c(c(-c4cccnc4[C@H](C)OC)n5CC)CC(C)(C)COC(=O)[C@@H]4CCCN(N4)C3=O)C(C)C)CC2)C1
100 to 1000 nM
